- measuredTarget: UniProtKB O43614
- Sequence (O43614 whole entry): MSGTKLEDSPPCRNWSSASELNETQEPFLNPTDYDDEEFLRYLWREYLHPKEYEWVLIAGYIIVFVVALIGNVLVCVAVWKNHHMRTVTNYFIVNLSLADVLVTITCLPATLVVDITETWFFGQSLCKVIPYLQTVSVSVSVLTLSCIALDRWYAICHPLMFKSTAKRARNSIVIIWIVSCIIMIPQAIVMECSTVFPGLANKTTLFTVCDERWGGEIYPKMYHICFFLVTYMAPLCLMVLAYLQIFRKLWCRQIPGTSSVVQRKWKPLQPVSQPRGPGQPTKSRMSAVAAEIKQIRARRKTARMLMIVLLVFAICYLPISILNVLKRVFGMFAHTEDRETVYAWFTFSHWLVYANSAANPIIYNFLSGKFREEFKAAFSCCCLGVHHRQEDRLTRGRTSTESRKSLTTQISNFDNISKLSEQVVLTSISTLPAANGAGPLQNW
- assayDetails: Evaluation of OX2R agonist activity (intracellular calcium, CHO-K1 cells with forced expression of human OX2R)
- measurementSetup: CHO-K1 cells expressing human OX2R; 100% = 5 µM of the reference compound; read-out: hOX2R EC50

| compound | EC50 |
| --- | --- |
| CS(=O)(=O)N[C@@H]1[C@H](Cc2cc(F)cc(-c3ccccc3)c2F)N(C(=O)[C@H](O)C(F)(F)F)C2CC1(F)C2 [Example 79] | 40 nM |
| CC(C)(O)C(=O)N1C2CC(F)(C2)C(NS(C)(=O)=O)C1Cc1cccc(-c2cc(F)cc(F)c2)c1F (single isomer, unassigned) [Example 12] | 27 nM |
| C[C@@H](O)C(=O)N1C2CC(F)(C2)[C@H](NS(C)(=O)=O)[C@@H]1Cc1cccc(-c2ccccc2)c1F [Example 53] | 19 nM |
| CS(=O)(=O)NC1C2CC(C2)N(C(=O)C2CC2)C1Cc1ccnc(-c2cc(F)cc(F)c2)c1F (single isomer, unassigned) [Example 22] | 80 nM |
| CC(C)(O)C(=O)N1C2CC(C2)[C@H](NS(C)(=O)=O)[C@@H]1Cc1cccc(-c2cccc(Cl)n2)c1F [Example 21] | 217 nM |
| [2H]C([2H])([2H])[C@@]([2H])(O)C(=O)N1C2CC(C2)[C@H](NS(C)(=O)=O)[C@@H]1Cc1cccc(-c2ccccc2)c1F [Example 76] | 18 nM |
| Cc1cccc(-c2cccc(C[C@H]3[C@@H](NS(C)(=O)=O)C4CC(C4)N3C(=O)C(C)(C)O)c2F)c1 [Example 11] | 60 nM |
| C[C@@H](O)C(=O)N1C2CC(F)(C2)C(NS(C)(=O)=O)C1Cc1cccc(-c2cc(F)cc(F)c2)c1F (single isomer, unassigned) [Example 23] | 34 nM |
| CC(C)(F)C(=O)N1C2CC(F)(C2)[C@H](NS(C)(=O)=O)[C@@H]1Cc1cccc(-c2ccccc2)c1F (single isomer, unassigned) [Example 85] | 275 nM |
| CS(=O)(=O)NC1C(Cc2cccc(-c3cc(F)cc(F)c3)c2F)N(C(=O)C2CC2)C2CC1(F)C2 (single isomer, unassigned) [Example 36] | 62 nM |
| C[C@@H](O)C(=O)N1C2CC(F)(C2)[C@H](NS(C)(=O)=O)[C@@H]1Cc1cc(F)cc(-c2ccccc2)c1F [Example 63] | 22 nM |
| CC(C)(O)C(=O)N1C2CC(C2)[C@H](NS(C)(=O)=O)[C@@H]1Cc1cccc(-c2cc(F)cc(F)c2)c1F (single isomer, unassigned) [Example 1] | 67 nM |

# credit: patent EP4635944A1
